Reference source: PubChem BioAssay (NCI)

system: SK-MEL-5 melanoma
I would appreciate it if you answered using one of these outcomes: 1.0 = active, 0.0 = inactive

State the result this test recorded for `O=C(c1ccc2ncc(-c3nc(NC4CC4)ncc3F)n2c1)N1CCOCC1` . 0.0

For this molecule, state the assay outcome: `Cc1nc2ccc(Nc3nc(NCCN4CCOCC4)nc(Nc4ccc(F)cc4)n3)cc2n1Cc1ccccc1` 0.0

Short answer needed: outcome of this test for `O=[N+]([O-])c1ccc(N/N=C/c2c(O)ccc3ccccc23)nc1` ? 0.0

Hey, what did the test say about `COc1cc2c3c(c1)c1cc(OC)c(OC)cc1c[n+]3CC2` ? 0.0

Name the outcome recorded for OCC1OC(n2ccc3c(NO)ncnc32)C(O)C1O (stereo not given) in the assay. 1.0

Returns: the outcome recorded for `COc1ccc2c(Nc3ccc(NS(C)(=O)=O)cc3)c3ccccc3nc2c1` in this assay. 0.0

Called result for `O=C(Nc1ccc(Cl)cc1)c1ccc(NC2=C(Cl)C(=O)N(Cc3ccccc3)C2=O)cc1` 0.0

Outcome? `CCCCCCCCCCN(CCCCCCCCCC)CC(=O)c1ccc2cc(Br)c3ccccc3c2c1` 0.0

Can you look up the reported call for `NC1CCN(c2nc(Nc3cccc(C(F)(F)F)c3)c3c(=O)[nH]ccc3n2)CC1` for me? 0.0

Called result for `COc1ccc(-c2cc(/C=C3\C(=O)Nc4ccc(Cl)cc43)[nH]n2)cc1` 0.0
